The measured values listed here are drawn from paper PMC3510438.

Biological target: Y91Q-rPepT1 (Oryctolagus cuniculus, UniProt P36836, Y91Q)
Sequence (P36836 whole entry Y91Q): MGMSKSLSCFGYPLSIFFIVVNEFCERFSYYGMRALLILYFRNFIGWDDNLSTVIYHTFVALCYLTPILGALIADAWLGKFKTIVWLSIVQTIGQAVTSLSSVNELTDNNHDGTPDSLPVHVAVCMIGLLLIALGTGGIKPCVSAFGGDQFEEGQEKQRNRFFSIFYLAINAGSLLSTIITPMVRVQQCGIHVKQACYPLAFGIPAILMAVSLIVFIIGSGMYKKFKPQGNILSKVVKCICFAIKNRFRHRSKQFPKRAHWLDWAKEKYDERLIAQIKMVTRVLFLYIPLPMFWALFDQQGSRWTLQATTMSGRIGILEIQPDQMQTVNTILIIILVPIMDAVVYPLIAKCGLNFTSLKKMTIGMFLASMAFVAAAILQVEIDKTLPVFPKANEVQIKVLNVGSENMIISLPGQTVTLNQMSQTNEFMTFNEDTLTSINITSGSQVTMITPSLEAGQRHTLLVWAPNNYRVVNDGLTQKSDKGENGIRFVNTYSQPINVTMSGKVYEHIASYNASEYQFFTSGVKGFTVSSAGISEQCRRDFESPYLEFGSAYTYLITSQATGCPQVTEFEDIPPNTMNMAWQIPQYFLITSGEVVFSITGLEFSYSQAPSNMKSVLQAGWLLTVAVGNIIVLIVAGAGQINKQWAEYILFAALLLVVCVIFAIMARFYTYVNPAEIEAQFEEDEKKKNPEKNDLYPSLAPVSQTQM
Assay: Competition of [3H]-D-Phe-L-Gln uptake into Xenopus oocytes, Ki
Settings: pHout 7.4; against 0.4 μM [3H]-D-Phe-L-Gln uptake
Where a SMILES comes first, the peptide text is derived from it.
measureName: Ki (µM)

{"molecule": "NCC(=O)N[C@@H](CCC(N)=O)C(=O)O [Gly-L-Gln] (H-Gly-Gln-OH)", "quantityUnit": "µM", "endpointValue": 30}

====

Target: Y345F-rPepT1 (Oryctolagus cuniculus, UniProt P36836, Y345F)
Construct: expressed in transfected cells; host or cells: Xenopus laevis oocytes injected with cRNA
Sequence (P36836 whole entry Y345F): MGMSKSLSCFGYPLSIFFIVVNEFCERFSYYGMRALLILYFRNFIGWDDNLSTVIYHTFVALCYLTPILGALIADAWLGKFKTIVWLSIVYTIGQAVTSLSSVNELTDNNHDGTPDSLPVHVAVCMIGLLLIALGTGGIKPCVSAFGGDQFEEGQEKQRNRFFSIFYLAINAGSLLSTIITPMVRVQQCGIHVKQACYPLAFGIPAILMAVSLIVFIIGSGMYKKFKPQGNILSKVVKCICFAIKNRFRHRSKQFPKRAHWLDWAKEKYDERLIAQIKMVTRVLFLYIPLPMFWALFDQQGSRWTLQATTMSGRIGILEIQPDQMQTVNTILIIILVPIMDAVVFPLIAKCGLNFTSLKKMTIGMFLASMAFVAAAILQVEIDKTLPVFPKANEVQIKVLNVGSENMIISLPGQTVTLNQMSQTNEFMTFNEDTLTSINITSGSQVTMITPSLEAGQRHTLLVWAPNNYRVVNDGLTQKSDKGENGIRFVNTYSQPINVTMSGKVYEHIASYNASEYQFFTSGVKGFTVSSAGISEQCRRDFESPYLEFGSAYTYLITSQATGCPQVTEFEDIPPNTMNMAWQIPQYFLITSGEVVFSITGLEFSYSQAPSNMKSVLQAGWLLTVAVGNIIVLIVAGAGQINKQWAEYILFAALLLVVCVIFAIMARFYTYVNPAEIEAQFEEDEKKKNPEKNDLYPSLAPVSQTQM
Experiment: Competition of [3H]-D-Phe-L-Gln uptake into Xenopus oocytes, Ki
Format: cell-based, rabbit
Settings: pHout 5.5; against 0.4 μM [3H]-D-Phe-L-Gln uptake
pKi: −log10 of the molar value. Where a SMILES comes first, the peptide text is derived from it.

{"molecule": "NCC(=O)N[C@@H](CCC(N)=O)C(=O)O [Gly-L-Gln] (H-Gly-Gln-OH)", "measurementTarget": "Y345F-rPepT1 (Oryctolagus cuniculus, UniProt P36836, Y345F)", "pKi": 3.49}
